- Assay system: Tyrosyl-DNA phosphodiesterase 2 (Homo sapiens) (UniProt O95551)
- Sequence (O95551 whole entry, looked up): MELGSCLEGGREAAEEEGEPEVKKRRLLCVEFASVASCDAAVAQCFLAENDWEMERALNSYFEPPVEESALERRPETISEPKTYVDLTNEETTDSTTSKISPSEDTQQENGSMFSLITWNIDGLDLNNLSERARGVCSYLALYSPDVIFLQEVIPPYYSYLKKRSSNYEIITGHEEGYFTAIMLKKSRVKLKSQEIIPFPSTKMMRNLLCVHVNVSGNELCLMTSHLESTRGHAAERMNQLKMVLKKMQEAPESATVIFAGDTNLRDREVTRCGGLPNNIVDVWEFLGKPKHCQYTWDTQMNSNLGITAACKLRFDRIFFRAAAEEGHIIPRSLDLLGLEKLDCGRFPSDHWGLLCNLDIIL
- Test: blockers of TDP2 phosphodiesterase activity – biochemical, epi absorbance, recombinant enzyme, primary screen (AID 720702);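 also: 0% = DMSO with enzyme and 100% = buffer with substrate but no TDP2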
- Setup conditions: recombinant TDP2, T5PNP hydrolysis, p-nitrophenol absorbance 415 nm; at 12.8 µM; active compounds read high
The whole screen tested about 370,000 compounds, of which about 1,200 (0.32%) were called active. This is one part of a sample in which actives are shown more often than they occur.
Could you please report measured inhibition for the items listed next?
Write the number in % without appending the unit.

response.value for O=[N+]([O-])c1ccc(NS(=O)(=O)c2ccccc2)c(Cl)c1 (field: inhibition) = -17.4

Value of measured inhibition for the entry CCCCNC(=O)C(C)N(CCN(C)C)C(=O)CCCCCN1C(=O)NC(c2ccc(Cl)cc2)C(C(=O)OCc2ccccc2)=C1C (stereo unspecified) : -0.25

The value of inhibition measured for the molecule Cc1ccccc1Cn1c2ccccc2c2cnn(CC(=O)NCc3ccco3)c(=O)c21 turned out to be 24.5

Quick note, inhibition for CC1CCCCC1NC(=O)c1cc(=O)[nH]c2ccccc12 (stereo unspecified) landed at 6.87

Just so you know, measured inhibition for CC1CCCC(NC(=O)c2cc(-c3ccncc3)nc3ccccc23)C1C (stereo unspecified) came out at 68.1

CCOC(=O)c1ccc(NC(=O)C2CC(=O)Nc3nc4ccccc4n32)cc1 (stereo unspecified) has a reported inhibition of -14.1

Entry Cc1cc(OCC(=O)Nc2nccs2)c2c(C)c(C)c(=O)oc2c1 — recorded inhibition = 0.03

For COC1=C[C@H](C(=O)NCCNC(C)=O)[C@H](C)[C@@H](c2ccccc2)CC1=O the molecule record lists inhibition as 6.52

Entry c1ccc(Cc2cc[n+](Cc3ccccc3)cc2)cc1 ; inhibition = 6.8

Entry CCC(=O)Nc1ccc2nn(-c3ccc(F)cc3)nc2c1 , inhibition reported as -12.3

// COc1cccc(CNC(=O)C2CCCN(c3nc4ccccc4o3)C2)c1OC (stereo unspecified) : inhibition value = -1.52

// inhibition lookup, molecule = O=C(NC1CC1)c1ccc(-c2ccccc2)cc1 , result: -8.19

// inhibition value for Cc1ccc(-n2c(SCC(=O)Nc3ccc(S(=O)(=O)Nc4nccs4)cc3)nnc2-c2cccnc2)cc1 : -18.4

inhibition recorded for this molecule, CCOC(=O)c1c(C)n(C)c2ccc(OC)c(NS(=O)(=O)CC)c12 , is -7.66

inhibition reported for this molecule COC(=O)C1CN(CCc2ccccc2)CCS(=O)(=O)N1Cc1cccc(Cl)c1 (stereo unspecified) : 6.91

Entry Oc1c(C=Nc2cccc3nsnc23)ccc2ccccc12 ; inhibition = 59.5

The molecule listed as O=C(C1CCCN1S(=O)(=O)c1ccccc1)N1CCc2ccccc2C1 (stereo unspecified) has a reported inhibition of -6.17

What the record says about Nc1ccc2nn(-c3ccc(Cl)cc3)nc2c1 : inhibition is 30.9

Summary for this molecule, CCCCNC(=O)C[C@H]1C[C@@]2(C(=O)OC)C(=C[C@H](COCc3ccccc3)O[C@@H]2C)N(Cc2ccc(Cl)cc2Cl)C1=O : inhibition is -0.01

response.value for c1coc(CCNc2ncnc3ccc(-c4ccc5c(c4)OCO5)cc23)c1 (field: inhibition) = 0.8

inhibition in this record for Cc1cc(C)c(S(=O)(=O)NN=C2c3ccccc3[C@H]3Cc4csc[n+]4[C@@H]23)c(C)c1 : 25.7

====

- Assay system: Tyrosyl-DNA phosphodiesterase 2 (Homo sapiens) (UniProt O95551)
- Test: blockers of TDP2 phosphodiesterase activity – biochemical, epi absorbance, recombinant enzyme, primary screen (AID 720702);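 also: 0% = DMSO with enzyme and 100% = buffer with substrate but no TDP2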
- Setup conditions: recombinant TDP2, T5PNP hydrolysis, p-nitrophenol absorbance 415 nm; at 12.8 µM; active compounds read high
About 1,200 (0.32%) of roughly 370,000 compounds were called active. Shown is part of a subset that was picked to be rich in actives.
Reported metric: inhibition (%)
Please give a number only; it is taken to be in %.

Reported inhibition ( CCN(CC)CCCN=C(N)N ) = 1.59

Quick note, inhibition for CCOC(=O)C1CCN(C(=O)C(C)(C)NC(=O)Nc2ccccc2Cl)CC1 landed at 1.3

Note to self: inhibition recorded for O=C(NC1CCCC1)C1CSCCS(=O)(=O)N1Cc1ccccc1 (stereo unspecified) was 7.85

Briefly, inhibition measured for Cc1ccc(-n2c(SCC(=O)Nc3ccc(S(=O)(=O)Nc4nccs4)cc3)nnc2-c2ccncc2)cc1 : -0.21

In plain terms, COc1ccc(-n2c(SCC(=O)Nc3ccc4c(c3)OCCO4)nnc2-c2ccc(Cl)cc2)cc1 has a documented inhibition of -7.72

Lab note: measured inhibition of O=C(CCl)N(Cc1cccc([N+](=O)[O-])c1)c1cccc(Cl)c1 was -6.43

Briefly, inhibition measured for COc1ccc2c(c1)C(C)=CC(C)(C)N2C(=O)Nc1ccccc1 : 41.9

So, CC1=C2C(=O)OC(c3ccoc3)C2(C)CCC1 (stereo unspecified) ? Its inhibition was -14.5

Sure, the documented inhibition for CCCCc1c(O)nc2n(c1=O)CCS2 is 7.5

Measured inhibition, CCN(CC)C(=O)[C@H]1C[C@H](CC(=O)NCC23CC4CC(CC(C4)C2)C3)C(=O)N2CCc3c([nH]c4cc(CCC(=O)N(C)C)ccc34)[C@]12C : -4.89

molecule COc1cccc(NC(=O)C2C(c3ccccc3)C2(Cl)Cl)c1 (stereo unspecified) , inhibition observed: 0.37

====

- Assay system: Tyrosyl-DNA phosphodiesterase 2 (Homo sapiens) (UniProt O95551)
- Test: blockers of TDP2 phosphodiesterase activity – biochemical, epi absorbance, recombinant enzyme, primary screen (AID 720702);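 also: 0% = DMSO with enzyme and 100% = buffer with substrate but no TDP2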
- Setup conditions: recombinant TDP2, T5PNP hydrolysis, p-nitrophenol absorbance 415 nm; at 12.8 µM
The whole screen tested about 370,000 compounds, of which about 1,200 (0.32%) were called active.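 How the source made its calls: active means inhibition above the mean of all tested compounds plus 3 SD, set per campaign (cut at about 25% in these data); inactive means the rest.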 For the sample, actives were picked, then their nearest neighbours and some compounds at random.
Just give me one of these, please: 1 for active, 0 for inactive

[ask] Dear colleague, could you share the recorded outcome for CCOC(=O)C1=C(C)OC(N)=C(C#N)C1c1cncc(-c2ccc(F)cc2)c1 (centres undefined) when you have a moment?
[reply] 0

[ask] Answer briefly: the call reported for Cc1ccc(-c2nc(CS(=O)CC(=O)N3CCN(c4ncccn4)CC3)c(C)o2)cc1 (centres undefined) in this assay.
[reply] 0

[ask] For Cn1nc(N)c2ncc(C(Cl)(Cl)Cl)nc21 , what call appears in the results of this test?
[reply] 1

[ask] Called result for Cc1nn(-c2ccccc2)c2c1C(c1ccc(F)cc1)C(C#N)=C(N)O2 (centres undefined)
[reply] 1

[ask] Please indicate how the test categorized COc1ccc(C2C(C#N)=C(N)Oc3n[nH]c(C)c32)cc1CN1CCN(c2ccc(F)cc2)CC1 (centres undefined) .
[reply] 0

[ask] Could you please tell me the result logged for CCOC(=O)Cn1c2c(n(-c3ccc(F)cc3)c1=O)C=C(c1ccccc1)[C@@H](C)C(C(=O)N(C)C1CCCCC1)=C2 in this assay?
[reply] 0

[ask] Recorded test outcome, item Nc1c(NCCc2ccccc2)c2ccccc2oc1=O
[reply] 0

[ask] How was N[C@@H](Cc1ccccc1)C(=O)N1CCC[C@@H]1C(=O)N1CCC2CCN(S(=O)(=O)c3ccccc3)CC21 (some centres undefined) classified in this test?
[reply] 0

[ask] Short answer needed: outcome of this test for COc1ccc(-c2ccc3nnc(SCC(=O)Nc4ccc(NC(C)=O)cc4)n3n2)cc1 ?
[reply] 0

====

For each record, write down the corresponding inhibition.
- Assay system: Tyrosyl-DNA phosphodiesterase 2 (Homo sapiens) (UniProt O95551)
- Test: blockers of TDP2 phosphodiesterase activity – biochemical, epi absorbance, recombinant enzyme, primary screen (AID 720702);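 also: 0% = DMSO with enzyme and 100% = buffer with substrate but no TDP2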
- Setup conditions: recombinant TDP2, T5PNP hydrolysis, p-nitrophenol absorbance 415 nm; at 12.8 µM; active compounds read high
The whole screen tested about 370,000 compounds, of which about 1,200 (0.32%) were called active. This is one part of a sample in which actives are shown more often than they occur.
Please give a number only; it is taken to be in %.

Summary for this molecule, CCc1ccc(NC2Nc3cc(C)nn3S2)cc1 (stereo not given) : inhibition is -7.9

# molecule C=CCn1c(N)c(C(=O)OCC(C)C)c2nc3ccccc3nc21 ; its inhibition = 30.5

Sample C[C@H](C(=O)N(C)c1ccccc1)[C@@H](O)c1ccc2ccccc2c1 ; inhibition observed: 6.57

Value of measured inhibition for the entry CCOC(=O)N1CCC(NC(=O)Cc2cn(C)c3ccccc23)CC1 : -2.66

Data point: NS(=O)(=O)c1ccc(CCNC(=O)c2nc(CS(=O)(=O)c3ccc(Cl)cc3)no2)cc1 ; inhibition = -7.74

For reference, reported inhibition for C=CCN1CN(S(=O)(=O)c2ccc(OC)cc2)c2nc3ccccc3nc21 stands at -10.2

Briefly, inhibition measured for CC1=C(C(=O)N(C(C)C)C(C)C)CC(CC(=O)NCCCCc2ccccc2)C(=O)N1CCC1=CCCCC1 (stereo not given) : -5.04

Query CCCCC(=O)N[C@@H]1CC[C@@]23CCCN2C(=O)CCC[C@H]3[C@H]1C yields inhibition of -3.42

Item: CCOC(=O)c1ccc(NC2Nc3cc(C)nn3S2)cc1 (stereo not given) | inhibition: 26.6

inhibition measured on Cc1nc2c(C(=O)NCc3cccs3)cnn2c(C)c1Cc1ccc(F)cc1 = 6.37
